Each recorded value in this set is attributed to paper PMC6154738.

experiment: In vitro cytotoxicity (MTT) and CC50 determination; format: cell-based; settings: human; Caco-2, MTT; read-out: Cytotoxicity, means CC50 ± SD, Caco-2
assay-endpoint: CC50 at 72 h (µg/mL)
All answers are understood in µg/mL, so give the number only.

Task: I would be grateful if you could share the reported CC50 at 72 h for Oc1cc(O)c2c(c1)O[C@H](c1cc(O)c(O)c(O)c1)[C@@H](O)C2 [GC, (+)-gallocatechin] .
Result: 66.7

Task: I would be grateful if you could share the reported CC50 at 72 h for O=C(OC1Cc2c(O)cc(O)cc2OC1c1ccc(O)c(O)c1)c1cc(O)c(O)c(O)c1 (single isomer, unassigned; (-)) [ECG, (−)-epicatechin-3-O-gallate] .
Result: 67.6

Task: I would be grateful if you could share the reported CC50 at 72 h for c1ccc([C@H]2CN3CCSC3=N2)cc1 [Levamisole, reference compound] .
Result: 27.3

Task: I would be grateful if you could share the reported CC50 at 72 h for CCCSc1ccc2nc(NC(=O)OC)[nH]c2c1 [Albendazole, reference compound] .
Result: 29.4

Task: I would be grateful if you could share the reported CC50 at 72 h for Oc1cc(O)c2c(c1)O[C@H](c1cc(O)c(O)c(O)c1)[C@H](O)C2 [EGC, (−)-epigallocatechin] .
Result: 47.1

Task: I would be grateful if you could share the reported CC50 at 72 h for O=C(OC1Cc2c(O)cc(O)cc2OC1c1cc(O)c(O)c(O)c1)c1cc(O)c(O)c(O)c1 (single isomer, unassigned; (-)) [EGCG, (−)-epigallocatechin-3-O-gallate] .
Result: 60.9

Task: I would be grateful if you could share the reported CC50 at 72 h for O=C(O[C@H]1Cc2c(O)cc(O)cc2O[C@@H]1c1ccc(O)c(O)c1)c1cc(O)c(O)c(O)c1 [CG, (+)-catechin-3-O-gallate] .
Result: 66.3

---

test: In vitro cytotoxicity (MTT) and CC50 determination; format: cell-based; settings: human; Caco-2, CC50 after 48 h calculated in µM; read-out: Cytotoxicity CC50, Caco-2 (in brackets) (converted)
So I've got a bunch of compounds here, and I need their CC50 at 48 h values.
All answers are understood in µM, so give the number only.

Task: I would be grateful if you could share the reported CC50 at 48 h for O=C(OC1Cc2c(O)cc(O)cc2OC1c1ccc(O)c(O)c1)c1cc(O)c(O)c(O)c1 (single isomer, unassigned; (-)) [ECG, (−)-epicatechin-3-O-gallate] .
Result: 153

Task: I would be grateful if you could share the reported CC50 at 48 h for O=C(O[C@H]1Cc2c(O)cc(O)cc2O[C@@H]1c1ccc(O)c(O)c1)c1cc(O)c(O)c(O)c1 [CG, (+)-catechin-3-O-gallate] .
Result: 150

Task: I would be grateful if you could share the reported CC50 at 48 h for Oc1cc(O)c2c(c1)O[C@H](c1cc(O)c(O)c(O)c1)[C@@H](O)C2 [GC, (+)-gallocatechin] .
Result: 218

---

So I've got a bunch of compounds here, and I need their Mortality of rats: rat number end/start values.
tested on: Wistar rats; experiment: Acute oral toxicity on rats; details: Phase 1, 100 mg/kg single oral dose

Task: I would be grateful if you could share the reported Mortality of rats: rat number end/start for CCCSc1ccc2nc(NC(=O)OC)[nH]c2c1 [Albendazole, reference compound] .
Result: 0/3

Task: I would be grateful if you could share the reported Mortality of rats: rat number end/start for Oc1cc(O)c2c(c1)O[C@H](c1cc(O)c(O)c(O)c1)[C@@H](O)C2 [GC, (+)-gallocatechin] .
Result: 0/3

Task: I would be grateful if you could share the reported Mortality of rats: rat number end/start for Oc1cc(O)c2c(c1)O[C@H](c1cc(O)c(O)c(O)c1)[C@H](O)C2 [EGC, (−)-epigallocatechin] .
Result: 0/3

Task: I would be grateful if you could share the reported Mortality of rats: rat number end/start for O=C(OC1Cc2c(O)cc(O)cc2OC1c1ccc(O)c(O)c1)c1cc(O)c(O)c(O)c1 (single isomer, unassigned; (-)) [ECG, (−)-epicatechin-3-O-gallate] .
Result: 0/3

Task: I would be grateful if you could share the reported Mortality of rats: rat number end/start for O=C(O[C@H]1Cc2c(O)cc(O)cc2O[C@@H]1c1ccc(O)c(O)c1)c1cc(O)c(O)c(O)c1 [CG, (+)-catechin-3-O-gallate] .
Result: 0/3

---

tested on: O. ochengi microfilariae; assay: microbe, parasite or virus in culture; design: species or system Onchocerca ochengi; settings: SI = CC50 on Caco-2/LC50 on worm
assay-endpoint: Selectivity Index (SI) O. ochengi Microfilariae
Number, no unit, nothing else.

Task: So what Selectivity Index (SI) O. ochengi Microfilariae did c1ccc([C@H]2CN3CCSC3=N2)cc1 [Levamisole, reference compound] get with O. ochengi microfilariae?
Result: 27.3

Task: So what Selectivity Index (SI) O. ochengi Microfilariae did Oc1cc(O)c2c(c1)O[C@H](c1cc(O)c(O)c(O)c1)[C@H](O)C2 [EGC, (−)-epigallocatechin] get with O. ochengi microfilariae?
Result: 14.3

Task: So what Selectivity Index (SI) O. ochengi Microfilariae did CCCSc1ccc2nc(NC(=O)OC)[nH]c2c1 [Albendazole, reference compound] get with O. ochengi microfilariae?
Result: 14

Task: So what Selectivity Index (SI) O. ochengi Microfilariae did Oc1cc(O)c2c(c1)O[C@H](c1cc(O)c(O)c(O)c1)[C@@H](O)C2 [GC, (+)-gallocatechin] get with O. ochengi microfilariae?
Result: 20.8

---

System: C. elegans ZZ16 (lev-9(x16) X)
Assay: microbe, parasite or virus in culture
Details: Caenorhabditis elegans, 48 h, read-out: LC50/48 h (in brackets)
Protocol: All strains were obtained from the Caenorhabditis Genetic Centre (CGC, Minneapolis, MN, USA). Strains were maintained at 20 °C on nematode growth medium (NGM). All worms were age-synchronized and obtained from eggs that were isolated by bleaching. Young adult (L4 stage) worms were used to assess drug lethality. Monitored endpoint was 48 h mortality. Tests were performed in 24-well plates. […]
So I've got a bunch of compounds here, and I need their LC50 values.

Task: I would be grateful if you could share the reported LC50 for O=C(OC1Cc2c(O)cc(O)cc2OC1c1ccc(O)c(O)c1)c1cc(O)c(O)c(O)c1 (single isomer, unassigned; (-)) [ECG, (−)-epicatechin-3-O-gallate] .
Result: 76.4 µM

Task: I would be grateful if you could share the reported LC50 for Oc1cc(O)c2c(c1)O[C@H](c1cc(O)c(O)c(O)c1)[C@H](O)C2 [EGC, (−)-epigallocatechin] .
Result: 301 µM

Task: I would be grateful if you could share the reported LC50 for Oc1cc(O)c2c(c1)O[C@H](c1cc(O)c(O)c(O)c1)[C@@H](O)C2 [GC, (+)-gallocatechin] .
Result: 214 µM

Task: I would be grateful if you could share the reported LC50 for O=C(O[C@H]1Cc2c(O)cc(O)cc2O[C@@H]1c1ccc(O)c(O)c1)c1cc(O)c(O)c(O)c1 [CG, (+)-catechin-3-O-gallate] .
Result: 215 µM

---

test system: C. elegans CB211 (lev-1(e211) IV); test: microbe, parasite or virus in culture; conditions: Caenorhabditis elegans, 48 h, read-out: LC50/48 h
So I've got a bunch of compounds here, and I need their LC50 values.
All answers are understood in µg/mL, so give the number only.

Task: So what LC50 did Oc1cc(O)c2c(c1)O[C@H](c1cc(O)c(O)c(O)c1)[C@@H](O)C2 [GC, (+)-gallocatechin] get with C. elegans CB211 (lev-1(e211) IV)?
Result: 21.5

Task: So what LC50 did O=C(OC1Cc2c(O)cc(O)cc2OC1c1cc(O)c(O)c(O)c1)c1cc(O)c(O)c(O)c1 (single isomer, unassigned; (-)) [EGCG, (−)-epigallocatechin-3-O-gallate] get with C. elegans CB211 (lev-1(e211) IV)?
Result: 26.3

Task: So what LC50 did O=C(O[C@H]1Cc2c(O)cc(O)cc2O[C@@H]1c1ccc(O)c(O)c1)c1cc(O)c(O)c(O)c1 [CG, (+)-catechin-3-O-gallate] get with C. elegans CB211 (lev-1(e211) IV)?
Result: 96.4

Task: So what LC50 did O=C(OC1Cc2c(O)cc(O)cc2OC1c1ccc(O)c(O)c1)c1cc(O)c(O)c(O)c1 (single isomer, unassigned; (-)) [ECG, (−)-epicatechin-3-O-gallate] get with C. elegans CB211 (lev-1(e211) IV)?
Result: 41.7

Task: So what LC50 did Oc1cc(O)c2c(c1)O[C@H](c1cc(O)c(O)c(O)c1)[C@H](O)C2 [EGC, (−)-epigallocatechin] get with C. elegans CB211 (lev-1(e211) IV)?
Result: 83.3
